System: Trypanosoma cruzi
Experiment: GSK_TCAKS: pIC50 H2C9 Imaging: H9c2 Host Cardiomyocytes. […] Cells were then washed once with PBS before infection. T. cruzi trypomastigotes, collected at days 5 to 8 after infection from LLC-MK2 parasite infected cultures, were allowed to swim out for 4h at 37C from a centrifuged pellet (2,500 rpm/10 min/room temperature). Trypomastigotes were then collected and counted in a CASY Cell Counter. Trypomastigotes, in supplemented DMEM, were added to H9c2 cultures in a multiplicity of infection of 1 and incubated for 18 h. Cells were washed once with PBS before incubation of the infected H9c2 monolayer with trypsin (Life-Technologies) to detach cells from the flask. Cells were counted in a CASY Cell Counter using a 150 um capillary and their density set at 5 * 10^4 cells per mL in supplemented assay DMEM. Infected H9c2 were dispensed into 384-well poly-lysine coated assay plates at 50uL per well using a Multidrop Combi dispenser. After seeding them, the plates were incubated at 37C, 5% CO2 for 72h. Cultures were then fixed and stained by addition of 50 uL of a solution containing 8% formaldehyde and 4 uM DRAQ5 DNA dye (BioStatus, UK) per well. […] Five images were collected per well for reliable statistical analysis. Automated image analysis was performed with a script developed on Acapella High Content Imaging and Analysis Software (PerkinElmer). Output: Number of H9c2 Host Cardiomyocytes nuclei to determine drug-related cytotoxicity.
Assay type: functional, organism-based, Rattus norvegicus
Details: H9c2, 4 h
pIC50: −log10 of the molar value.
Measured pIC50, listed per entry.

// below: answered compounds
O=c1nc(NCCCNCc2cc(Br)cc(Br)c2)[nH]c2ccsc12	4.60
N#Cc1ccc(S(=O)(=O)N2CCC3(CCN(c4ccccc4)C3=O)CC2)cc1	< 4.30

Req: Quick one: pIC50 for "COCc1cc(Nc2ccc(Cl)cc2)nc(-c2ccccn2)n1" ?
Resp: 5.90

Req: Reported pIC50, compound "O=C(Cc1ccccc1)Nc1ccccc1C(=O)Nc1nccs1" : ____
Resp: < 4.30

Req: Look at this compound and give its reported pIC50. "Cc1c(C(=O)NCCCCn2ccnc2)oc2c(C)cccc12"
Resp: < 4.30

Req: Please look up its pIC50: "N#Cc1nc(C=Cc2ccccc2)oc1NCc1cccnc1"
Resp: 4.80
